system: Protein kinase C alpha type (Homo sapiens);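 note: each value is the mean percent inhibition of PKC-alpha kinase activity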
experimentalParameters: at 0.1 µM
Here the recorded inhibition is given for each entry.

# compoundSmiles, u, inhibition
measured = [
    ("CN(C)CCOc1ccc(-c2cc(-c3ccc4c(c3)CCC4=NO)c(-c3ccncc3)o2)cc1", "%", -0.04),
    ("C/C(Nc1ccc(S(N)(=O)=O)cc1)=C1/C(=O)Nc2ccccc21", "%", 0.02),
    ("Cc1nnc(-c2ccc(C)c(-c3ccc(C(=O)NCc4ccc(Cl)cc4)cc3)c2)o1", "%", -3.05),
    ("COc1ccc2ncn(-c3cc(O[C@H](C)c4ccccc4Cl)c(C(N)=O)s3)c2c1", "%", -2.81),
    ("O=C1NC(=O)C(c2cccc(Cl)c2)=C1Nc1ccc(Cl)c(C(=O)O)c1", "%", 0.36),
    ("C[C@@H](Oc1cc(-n2cnc3ccc(OCC4CCN(C)CC4)cc32)sc1C(N)=O)c1ccccc1Cl", "%", 1.11),
    ("CN(c1ccc(NC(=O)Nc2c(Cl)cccc2Cl)cc1)c1ccnc(Nc2cccc(CS(C)(=O)=O)c2)n1", "%", 1.14),
    ("COc1ccc(-c2ccc3c(NC(=O)C4CC4)n[nH]c3n2)cc1", "%", -0.95),
    ("Cc1ccc(NC(=O)c2ccoc2)cc1-c1ccc(C(=O)NCC2CC2)cc1", "%", -0.03),
]

====

system: Phosphatidylinositol 4-kinase beta (Homo sapiens) (UniProt Q9UBF8);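 note: values given are mean percent inhibition of PI4K-beta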
Sequence (Q9UBF8 2-816 limits assumed): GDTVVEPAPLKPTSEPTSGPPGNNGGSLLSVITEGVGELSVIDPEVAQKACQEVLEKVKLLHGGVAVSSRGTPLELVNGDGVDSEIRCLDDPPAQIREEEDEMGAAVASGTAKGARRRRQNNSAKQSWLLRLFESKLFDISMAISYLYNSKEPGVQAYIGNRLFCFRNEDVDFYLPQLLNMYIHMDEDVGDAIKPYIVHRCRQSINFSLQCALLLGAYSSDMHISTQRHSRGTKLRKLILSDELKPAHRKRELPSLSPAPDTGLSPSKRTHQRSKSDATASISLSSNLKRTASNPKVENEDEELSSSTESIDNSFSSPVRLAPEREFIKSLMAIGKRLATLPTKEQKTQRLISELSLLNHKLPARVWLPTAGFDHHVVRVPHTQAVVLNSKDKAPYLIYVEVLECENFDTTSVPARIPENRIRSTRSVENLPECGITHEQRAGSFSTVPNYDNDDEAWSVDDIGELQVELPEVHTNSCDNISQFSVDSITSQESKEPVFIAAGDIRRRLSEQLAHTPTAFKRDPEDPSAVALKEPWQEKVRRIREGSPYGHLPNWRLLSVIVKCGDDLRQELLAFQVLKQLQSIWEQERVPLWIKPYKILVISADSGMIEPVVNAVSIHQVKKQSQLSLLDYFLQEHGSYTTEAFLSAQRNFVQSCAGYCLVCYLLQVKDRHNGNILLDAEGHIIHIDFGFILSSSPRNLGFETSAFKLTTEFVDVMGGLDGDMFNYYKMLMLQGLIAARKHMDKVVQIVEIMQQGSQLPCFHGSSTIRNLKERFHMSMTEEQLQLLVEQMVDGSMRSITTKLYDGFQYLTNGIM
experimentalParameters: at 0.1 µM
readoutKind: inhibition (%)

# compoundSmiles, reading
measured = [
    ("O=C(Nc1ccc(Oc2ccc3[nH]c(NC(=O)c4ccccc4)nc3c2)cc1)Nc1cc(C(F)(F)F)ccc1F", 1.83),
    ("CCc1ccc(Oc2nccc(-c3c(-c4ccc(F)cc4)ncn3C3CCNCC3)n2)cc1", 3.17),
    ("CCS(=O)(=O)c1ccc(OC)c(Nc2ncc(-c3cccc(-c4ccccc4F)c3)o2)c1", -1.01),
    ("c1ccc(-c2n[nH]cc2-c2ccnc(-c3ccc(OCCN4CCOCC4)cc3)c2)nc1", -0.93),
    ("O=C(Nc1n[nH]c2nc(-c3ccco3)ccc12)C1CC1", 3.38),
    ("NS(=O)(=O)c1ccc(N/N=C2\\C(=O)Nc3ccc(-c4cnco4)cc32)cc1", 1.44),
    ("COc1cc2ncn(-c3cc(OCc4ccccc4C(F)(F)F)c(C(C)=O)s3)c2cc1OC", 1.58),
    ("CN(c1ccc(NC(=O)Nc2c(Cl)cccc2Cl)cc1)c1ccnc(Nc2cccc(CS(C)(=O)=O)c2)n1", 3.66),
    ("NC(=O)Cc1ccccc1Oc1nccc(-c2c(-c3ccc(F)cc3)ncn2C2CCNCC2)n1", -0.45),
]

====

system: Serine/threonine-protein kinase pim-3 (Homo sapiens)
experimentalParameters: at 1 µM
Description: GSK_PKIS: PIM3 mean inhibition at 1 uM [Nanosyn]
Here the recorded inhibition is given for each entry.

# compound, inhibition [%]
measured = [
    ("Fc1ccc(-c2ncn(C3CCNCC3)c2-c2ccnc(Oc3ccc4c(c3)OCO4)n2)cc1", 1.3),
    ("Cc1ccc(C(=O)NC2CCC2)cc1-c1ccc(C(=O)NCC2CC2)cc1", 0.14),
    ("Cc1ccc(NC(=O)c2ccoc2)cc1-c1ccc(C(=O)NCC2CC2)cc1", -0.9),
    ("c1ccc(-c2n[nH]cc2-c2ccnc(-c3ccc(OCCN4CCOCC4)cc3)c2)nc1", 3.99),
    ("COc1cccc(-n2cnc3c(N/N=C/c4ccncc4)ncnc32)c1", 6.5),
    ("COc1cc(C)c(N(C)C(=O)CN(C)C)cc1Nc1nc(Nc2cccc(F)c2C(N)=O)c2cc[nH]c2n1", 0.76),
    ("c1ccc(Oc2ccc(Nc3ncc(-c4ccccc4)o3)cc2)cc1", 1.18),
    ("COc1cc(Nc2ncc3c(C)nc(-c4cccc(Oc5ccccc5)c4)n3n2)cc(OC)c1OC", -0.16),
    ("CCc1nccc2c1nc(-c1nonc1N)n2CC", -2.26),
    ("COc1ccc(C2=C(N3CCc4ccccc43)C(=O)NC2=O)cc1", 0.86),
    ("CN(C)c1ccc2c(c1)/C(=C/Nc1ccc(S(N)(=O)=O)cc1)C(=O)N2", 0.56),
    ("Cc1ccc(C(=O)NC(C)C)cc1-c1ccc(C(=O)NCC2CC2)cc1", 2.53),
    ("O=C(Nc1n[nH]c2nc(-c3ccc(O)cc3)c(Br)cc12)C1CC1", 73.9),
    ("C#Cc1cccc(Nc2ncnc3ccc(OCCCCNCCS(C)(=O)=O)cc23)c1", 36.2),
    ("CCC(=O)Nc1ccc(C)c(-c2ccc(C(=O)NCC3CC3)cc2)c1", 0.73),
    ("Fc1ccc(-c2ncn(C3CCNCC3)c2-c2ccnc(Oc3ccc(F)c(F)c3)n2)cc1", -0.06),
    ("NCc1ccc(-n2c(-c3nonc3N)nc3cnccc32)cc1", 68.5),
    ("COc1ccc2cc(-c3c(-c4ccncc4)nc(-c4ccc([S+](C)[O-])cc4C)n3C)ccc2c1 (stereo unspecified)", 0.9),
    ("Fc1ccc(-c2nc3n(c2-c2ccncc2)CCS3)cc1", -1.87),
    ("Cc1nnc(-c2ccc(C)c(-c3ccc(C(=O)NCc4ccc(Cl)cc4)cc3)c2)o1", 0.96),
    ("Fc1ccc(-c2c(-c3ccncc3)nc3n2CCS3)cc1", 0.43),
    ("CN1CCN(CCCNc2nc3ccc(Oc4ccc(NC(=O)Nc5cc(C(F)(F)F)ccc5F)cc4)cc3[nH]2)CC1", -0.28),
    ("O=C(Nc1n[nH]c2cc(-c3ccccc3)ccc12)C1CC1", -2.34),
    ("NC(=O)Cc1ccccc1Oc1nccc(-c2c(-c3ccc(F)cc3)ncn2C2CCNCC2)n1", 0.63),
    ("NS(=O)(=O)c1ccc(Nc2cc(-c3ccc(O)c(F)c3)n[nH]2)cc1", 1.15),
    ("C[C@@H](Oc1cc(-n2cnc3ccc(OCC4CCN(C)CC4)cc32)sc1C(N)=O)c1ccccc1Cl", 52.7),
    ("Nc1nccc(-c2c(-c3ccc(F)cc3)ncn2C2CCC(O)CC2)n1 (stereo unspecified)", 0.35),
    ("CCc1ccc(Oc2nccc(-c3c(-c4ccc(F)cc4)ncn3C3CCNCC3)n2)cc1", 3.63),
    ("C[C@@H](Oc1cc(-n2cnc3ccc(OC4CCN(C)CC4)cc32)sc1C(N)=O)c1ccccc1Cl", 45),
    ("Fc1ccc(-c2ncn(C3CCNCC3)c2-c2ccnc(Oc3ccc(Oc4ccccc4)cc3)n2)cc1", 0.02),
    ("O=C1NC(=O)C(c2cccc(Cl)c2)=C1Nc1ccc(Cl)c(C(=O)O)c1", 0.43),
    ("COc1cc2ncn(-c3cc(OCc4ccccc4C(F)(F)F)c(C(C)=O)s3)c2cc1OC", -0.5),
    ("NC(=O)c1cc(-c2ccncc2)cc(-c2ccccc2)c1N", -1.81),
    ("COC(=O)Nc1nc2ccc(Sc3ccc(NC(=O)Nc4cc(C(F)(F)F)ccc4F)cc3)cc2[nH]1", 2.48),
    ("O=C1Nc2ccccc2/C1=C/Nc1ccc(-n2cncn2)cc1", 4.7),
    ("CCS(=O)(=O)c1ccc(OC)c(Nc2ncc(-c3ccccc3Cl)o2)c1", 2.15),
    ("Fc1ccc(-c2ncn(CCCN3CCOCC3)c2-c2ccncc2)cc1", -2.93),
    ("COc1ccc(-c2ccc3c(NC(=O)C4CC4)n[nH]c3n2)cc1", 0.61),
    ("COc1cc(Nc2ncc(-c3ccccc3)o2)cc(OC)c1OC", 1.87),
    ("COc1cccc(/C=N/Nc2ncnc3c2cnn3-c2cccc(OC)c2)c1", 0.16),
    ("NS(=O)(=O)c1ccc(N/N=C2\\C(=O)Nc3ccc(-c4cnco4)cc32)cc1", 15.5),
]

====

system: Fibroblast growth factor receptor 1 (Homo sapiens);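 note: values are the mean percent inhibition of FGFR1 across replicate measurements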
experimentalParameters: at 1 µM

# compoundSmiles, inhibition, %
rows = [
    ("CS(=O)(=O)CCNCc1ccc(-c2ccc3ncnc(Nc4ccc(OCc5ccccc5)c(Br)c4)c3c2)o1", 4.36),
    ("COc1cc2ncn(-c3cc(OCc4ccccc4C(F)(F)F)c(C(C)=O)s3)c2cc1OC", 2.73),
    ("COc1ccc2ncn(-c3cc(O[C@H](C)c4ccccc4Cl)c(C(N)=O)s3)c2c1", 4.65),
    ("Fc1ccc(-c2c(-c3ccncc3)nc3n2CCS3)cc1", 0.23),
    ("Cc1ccc(NC(=O)c2ccoc2)cc1-c1ccc(C(=O)NCC2CC2)cc1", 3.99),
]

====

system: Tyrosine-protein kinase ITK/TSK (Homo sapiens) (UniProt Q08881);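 note: values are mean percent inhibition of ITK from the GSK PKIS screen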
Sequence (Q08881 whole entry): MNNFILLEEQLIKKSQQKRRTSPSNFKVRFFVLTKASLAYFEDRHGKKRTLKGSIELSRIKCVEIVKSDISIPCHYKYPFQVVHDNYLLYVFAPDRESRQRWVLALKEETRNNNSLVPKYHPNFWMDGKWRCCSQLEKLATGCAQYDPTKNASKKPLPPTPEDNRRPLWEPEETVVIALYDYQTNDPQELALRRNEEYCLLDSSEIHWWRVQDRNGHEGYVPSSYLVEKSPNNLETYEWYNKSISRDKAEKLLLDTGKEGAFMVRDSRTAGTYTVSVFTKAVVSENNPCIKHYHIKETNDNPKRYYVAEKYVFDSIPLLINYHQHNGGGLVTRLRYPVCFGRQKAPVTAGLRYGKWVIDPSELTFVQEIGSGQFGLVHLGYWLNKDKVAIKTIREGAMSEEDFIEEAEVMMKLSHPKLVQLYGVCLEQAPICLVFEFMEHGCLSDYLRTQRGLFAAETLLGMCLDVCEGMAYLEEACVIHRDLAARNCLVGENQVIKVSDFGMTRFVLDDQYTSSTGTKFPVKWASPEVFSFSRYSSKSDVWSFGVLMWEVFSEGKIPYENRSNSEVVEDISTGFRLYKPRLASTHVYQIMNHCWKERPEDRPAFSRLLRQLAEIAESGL
experimentalParameters: at 1 µM

# molecule, inhibition [%]
rows = [
    ("O=C1NC(=O)C(c2cccc(Cl)c2)=C1Nc1ccc(Cl)c(C(=O)O)c1", 0.9),
    ("C[C@@H](Oc1cc(-n2cnc3ccc(OC4CCN(C)CC4)cc32)sc1C(N)=O)c1ccccc1Cl", -1.75),
    ("COc1cc(Nc2ncc3c(C)nc(-c4cccc(Oc5ccccc5)c4)n3n2)cc(OC)c1OC", 2.18),
    ("Fc1ccc(-c2ncn(CCCN3CCOCC3)c2-c2ccncc2)cc1", 1.2),
    ("COc1cc2ncn(-c3cc(OCc4cccs4)c(C(N)=O)s3)c2cc1OC", 2.34),
    ("Nc1nccc(-c2c(-c3ccc(F)cc3)ncn2C2CCC(O)CC2)n1 (stereo unspecified)", 0.63),
    ("FC(F)(F)c1cccc(Nc2nccc(-c3cnn4nc(-c5ccccc5)ccc34)n2)c1", 3.33),
    ("NS(=O)(=O)c1ccc(N/N=C2\\C(=O)Nc3ccc(-c4cnco4)cc32)cc1", -0.93),
    ("CCS(=O)(=O)c1ccc(OC)c(Nc2ncc(-c3cccc(-c4ccccc4F)c3)o2)c1", 2.37),
    ("CN(C)CCOc1ccc(-c2cc(-c3ccc4c(c3)CCC4=NO)c(-c3ccncc3)o2)cc1", 0.28),
    ("O=C1Nc2ccccc2/C1=C/Nc1ccc(-n2cncn2)cc1", 4.51),
    ("Fc1ccc(-c2nc3n(c2-c2ccncc2)CCS3)cc1", -1.9),
    ("NC(=O)c1cc(-c2ccc(F)cc2)cc(-c2ccncc2)c1N", -0.8),
    ("Clc1ccc(CNc2nccc(-c3cnn4ncccc34)n2)cc1", 1.37),
    ("COc1cc(Nc2ncc(-c3ccccc3)o2)cc(OC)c1OC", 2.92),
    ("COc1ccc2cc(-c3c(-c4ccncc4)nc(-c4ccc(S(C)(=O)=O)cc4C)n3C)ccc2c1", 1.36),
    ("COc1cccc(-n2cnc3c(N/N=C/c4ccncc4)ncnc32)c1", -1.27),
    ("O=C1Nc2ccc(I)cc2C1=Cc1cc(Br)c(O)c(Br)c1", 1.44),
    ("NC(=O)Cc1ccccc1Oc1nccc(-c2c(-c3ccc(F)cc3)ncn2C2CCNCC2)n1", 1),
    ("O=C(Nc1n[nH]c2nc(-c3ccco3)ccc12)C1CC1", 2.43),
    ("Fc1ccc(-c2ncn(C3CCNCC3)c2-c2ccnc(Oc3ccc4c(c3)OCO4)n2)cc1", 3.21),
    ("CS(=O)(=O)CCNCc1ccc(-c2ccc3ncnc(Nc4ccc(OCc5ccccc5)c(Br)c4)c3c2)o1", -2.69),
    ("C[C@@H](Oc1cc(-n2cnc3ccc(OCC4CCN(C)CC4)cc32)sc1C(N)=O)c1ccccc1Cl", 3.2),
    ("NS(=O)(=O)c1ccc(Nc2cc(-c3ccc(O)c(F)c3)n[nH]2)cc1", 12.4),
    ("NCc1ccc(-n2c(-c3nonc3N)nc3cnccc32)cc1", 2.4),
    ("COc1cccc(/C=N/Nc2ncnc3c2cnn3-c2cccc(OC)c2)c1", 0.34),
    ("CCc1ccc(Oc2nccc(-c3c(-c4ccc(F)cc4)ncn3C3CCNCC3)n2)cc1", 2.38),
    ("COc1ccc(-c2ccc3c(NC(=O)C4CC4)n[nH]c3n2)cc1", 2.25),
    ("C/C(Nc1ccc(S(N)(=O)=O)cc1)=C1/C(=O)Nc2ccccc21", 4.72),
    ("COc1cc(N2CCN(C(C)C)CC2)ccc1Nc1nc(Nc2ccc(F)cc2C(=O)NC[C@@H](O)CO)c2cc[nH]c2n1", -1.4),
    ("C#Cc1cccc(Nc2ncnc3ccc(OCCCCNCCS(C)(=O)=O)cc23)c1", -2.14),
    ("Cc1nnc(-c2ccc(C)c(-c3ccc(C(=O)NCc4ccc(Cl)cc4)cc3)c2)o1", -2.86),
    ("COc1cc2ncn(-c3cc(OCCc4ccccc4)c(C(N)=O)s3)c2cc1OC", 2.27),
    ("NC(=O)c1ccc(Oc2nccc(-c3c(-c4ccc(F)cc4)ncn3C3CCNCC3)n2)cc1", 2.32),
    ("COc1ccc(C2=C(N3CCc4ccccc43)C(=O)NC2=O)cc1", 2.26),
    ("O=C(Nc1n[nH]c2cc(-c3ccccc3)ccc12)C1CC1", 2.12),
    ("COc1cc(Nc2ncc3c(C)nc(-c4cccc(C(F)(F)F)c4)n3n2)cc(OC)c1OC", 13.5),
    ("COc1cc2ncn(-c3cc(OCc4ccccc4C(F)(F)F)c(C(C)=O)s3)c2cc1OC", 6.89),
    ("NS(=O)(=O)c1ccc(N/N=C2\\C(=O)Nc3ccc(C(=O)NCCCn4ccnc4)cc32)cc1", 3.12),
    ("c1ccc(Oc2ccc(Nc3ncc(-c4ccccc4)o3)cc2)cc1", 2.13),
    ("O=C(Nc1ccc(Oc2ccc3[nH]c(NC(=O)c4ccccc4)nc3c2)cc1)Nc1cc(C(F)(F)F)ccc1F", 2.09),
]
